TESTED_SYSTEM: full-length kinase/Nluc fusion proteins (Homo sapiens)
TEST_METHOD_NOTES: Apparent affinity (EC50) of energy transfer probes by titration onto live HEK293 cells expressing kinase/Nluc fusions (Table S1)
CONDITION_CONTEXT: MAP3K10, Nluc N; read-out: Probe EC50
ASSAY_READOUT: EC50

query: Reported EC50, molecule CNC(=O)c1ccccc1Nc1nc(Nc2ccc(N3CCN(C(=O)CCOCCOCCOCCOCCNC(=O)CCc4ccc5n4[B-](F)(F)[N+]4=C(c6ccc[nH]6)C=CC4=C5)CC3)cc2)ncc1Cl [Energy Transfer Probe 5] : ____
result: > 1 µM

====

TESTED_SYSTEM: full-length kinase/Nluc fusion proteins (Homo sapiens, UniProt P11309)
Sequence (P11309 whole entry, the tested form may be a part): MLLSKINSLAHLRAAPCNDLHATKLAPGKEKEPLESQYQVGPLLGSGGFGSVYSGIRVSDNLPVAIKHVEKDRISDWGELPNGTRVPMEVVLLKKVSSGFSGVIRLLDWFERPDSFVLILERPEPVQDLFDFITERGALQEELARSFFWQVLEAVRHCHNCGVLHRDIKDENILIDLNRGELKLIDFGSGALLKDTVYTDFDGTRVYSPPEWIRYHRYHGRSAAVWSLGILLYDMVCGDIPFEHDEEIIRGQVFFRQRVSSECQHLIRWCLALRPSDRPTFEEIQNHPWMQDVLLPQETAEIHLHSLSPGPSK
TEST_METHOD_NOTES: Apparent affinity (EC50) of energy transfer probes by titration onto live HEK293 cells expressing kinase/Nluc fusions (Table S1)
CONDITION_CONTEXT: PIM1, Nluc C; read-out: Probe EC50
ASSAY_READOUT: EC50

query: What does the data say about its EC50? Entry: CNC(=O)c1ccccc1Nc1nc(Nc2ccc(N3CCN(C(=O)CCOCCOCCOCCOCCNC(=O)CCc4ccc5n4[B-](F)(F)[N+]4=C(c6ccc[nH]6)C=CC4=C5)CC3)cc2)ncc1Cl [Energy Transfer Probe 5]
result: > 1 µM

====

TESTED_SYSTEM: full-length kinase/Nluc fusion proteins (Homo sapiens)
TEST_METHOD_NOTES: Apparent affinity (EC50) of energy transfer probes by titration onto live HEK293 cells expressing kinase/Nluc fusions (Table S1)
CONDITION_CONTEXT: RPS6KA3 (NP_004577), Nluc orientation N; read-out: Probe EC50
ASSAY_READOUT: EC50 (nM)
Answers are plain numbers, in nM.

query: Return EC50 measured with full-length kinase/Nluc fusion proteins (Homo sapiens) given this compound: CNC(=O)c1ccccc1Nc1nc(Nc2ccc(N3CCN(C(=O)CCOCCOCCOCCOCCNC(=O)CCc4ccc5n4[B-](F)(F)[N+]4=C(c6ccc[nH]6)C=CC4=C5)CC3)cc2)ncc1Cl [Energy Transfer Probe 5]
result: 200

====

TESTED_SYSTEM: full-length kinase/Nluc fusion proteins (Homo sapiens)
TEST_METHOD_NOTES: Apparent affinity (EC50) of energy transfer probes by titration onto live HEK293 cells expressing kinase/Nluc fusions (Table S1)
CONDITION_CONTEXT: CDK5, Nluc C; read-out: Probe EC50
ASSAY_READOUT: EC50

query: Form field: reported EC50 of CNC(=O)c1ccccc1Nc1nc(Nc2ccc(N3CCN(C(=O)CCOCCOCCOCCOCCNC(=O)CCc4ccc5n4[B-](F)(F)[N+]4=C(c6ccc[nH]6)C=CC4=C5)CC3)cc2)ncc1Cl [Energy Transfer Probe 5]
result: > 1000 nM

====

TESTED_SYSTEM: full-length kinase/Nluc fusion proteins (Homo sapiens, UniProt Q14680)
Sequence (Q14680 whole entry, the tested form may be a part): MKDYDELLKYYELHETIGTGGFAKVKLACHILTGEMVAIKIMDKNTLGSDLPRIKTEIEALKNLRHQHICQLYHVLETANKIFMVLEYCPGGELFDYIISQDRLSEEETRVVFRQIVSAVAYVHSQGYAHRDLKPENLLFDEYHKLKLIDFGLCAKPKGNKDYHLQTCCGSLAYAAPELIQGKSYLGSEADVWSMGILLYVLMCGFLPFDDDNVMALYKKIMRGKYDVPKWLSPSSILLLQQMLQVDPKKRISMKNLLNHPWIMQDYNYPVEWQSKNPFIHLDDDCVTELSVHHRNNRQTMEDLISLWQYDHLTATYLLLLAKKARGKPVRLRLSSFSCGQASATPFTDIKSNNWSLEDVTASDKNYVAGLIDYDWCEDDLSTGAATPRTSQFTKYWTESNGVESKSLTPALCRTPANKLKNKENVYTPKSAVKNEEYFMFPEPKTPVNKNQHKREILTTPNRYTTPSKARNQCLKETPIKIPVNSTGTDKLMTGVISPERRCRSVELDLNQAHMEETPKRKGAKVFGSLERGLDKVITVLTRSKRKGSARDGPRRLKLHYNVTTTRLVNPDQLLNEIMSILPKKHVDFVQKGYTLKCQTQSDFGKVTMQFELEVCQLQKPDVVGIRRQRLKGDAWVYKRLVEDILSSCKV
TEST_METHOD_NOTES: Apparent affinity (EC50) of energy transfer probes by titration onto live HEK293 cells expressing kinase/Nluc fusions (Table S1)
CONDITION_CONTEXT: MELK, Nluc N; read-out: Probe EC50
ASSAY_READOUT: EC50

query: Which EC50 value belongs to CNC(=O)c1ccccc1Nc1nc(Nc2ccc(N3CCN(C(=O)CCOCCOCCOCCOCCNC(=O)CCc4ccc5n4[B-](F)(F)[N+]4=C(c6ccc[nH]6)C=CC4=C5)CC3)cc2)ncc1Cl [Energy Transfer Probe 5] ?
result: > 1000 nM
